Origin of the recorded values: patent US10973821B2

experiment: in vivo PK studies in cynomolgus monkeys (single dose IV and p.o.); conditions: both sexes, cynomolgus monkey, 10 mg/kg
QUANTITY MEASURED: AUC (ng·h/mL)
Kindly provide the numeric value in ng·h/mL only, without the unit symbol.

Data request: Endpoint output: AUC of Cc1cc(-c2ccccc2)c(C(=O)C(=O)Nc2ccc(N3CCN(c4ncc(F)cn4)CC3)cc2)n1C . Value?
Data returned: 18000
